FYI, the data here is from patent US20130078247A1.

- Test target: T1, recombinant human DLL4 (human, UniProt Q9NR61 25-522)
- T1 construct: R&D Systems C-terminally His-tagged extracellular domain; also called rhDLL4; hDLL4; not shown: C-terminal His tag
- T1 sequence (Q9NR61 25-522): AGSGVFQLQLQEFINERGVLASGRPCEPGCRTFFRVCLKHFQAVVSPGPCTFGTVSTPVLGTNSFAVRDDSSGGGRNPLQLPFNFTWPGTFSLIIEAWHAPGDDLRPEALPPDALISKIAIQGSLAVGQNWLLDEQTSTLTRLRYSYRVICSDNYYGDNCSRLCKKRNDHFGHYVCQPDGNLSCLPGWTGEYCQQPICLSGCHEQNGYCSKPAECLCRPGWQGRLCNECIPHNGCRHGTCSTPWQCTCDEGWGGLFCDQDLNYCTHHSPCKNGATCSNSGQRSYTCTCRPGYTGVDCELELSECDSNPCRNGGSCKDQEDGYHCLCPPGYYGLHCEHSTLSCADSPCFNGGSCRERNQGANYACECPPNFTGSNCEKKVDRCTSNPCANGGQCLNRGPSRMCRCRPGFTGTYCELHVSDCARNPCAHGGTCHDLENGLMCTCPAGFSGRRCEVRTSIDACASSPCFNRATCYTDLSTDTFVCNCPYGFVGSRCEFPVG
- Protocol notes: ProteOn off-rate screen, periplasmic extract, hDLL4 on chip
Endpoint: fold (off-rate improvement over DLLBII101G08) (fold)

- Binder: "DLLBII129E11 (VHH, not shown: C-terminal c-myc tag and (His)6 tag) VHH: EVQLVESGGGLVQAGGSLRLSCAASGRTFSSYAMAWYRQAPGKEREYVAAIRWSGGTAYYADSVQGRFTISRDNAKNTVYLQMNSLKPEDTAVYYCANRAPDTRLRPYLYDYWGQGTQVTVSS"
  Display unit: "fold"
  Test result: 28
- Binder: "DLLBII101G08 (VHH, also called 101G8; DLLBII101G8; not shown: C-terminal c-myc tag and His6 tag) VHH: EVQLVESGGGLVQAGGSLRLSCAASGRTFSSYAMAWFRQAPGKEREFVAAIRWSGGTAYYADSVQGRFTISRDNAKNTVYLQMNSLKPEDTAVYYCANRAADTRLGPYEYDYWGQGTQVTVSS"
  Display unit: "fold"
  Test result: 1
- Binder: "DLLBII129E03 (VHH) VHH: EVQLVESGGGLVQAGGSLRLSCAASGRTFSSYAMAWFRQAPGKDREYVAAIRWSGGTAYYADSVQGRFTISRDNAKNTVYLQMNSLKPEDTAVYYCANRAPDTRLAPYLYDYWGQGTQVTVSS"
  Display unit: "fold"
  Test result: 20
- Binder: "DLLBII130B03 (VHH, not shown: C-terminal c-myc tag and (His)6 tag) VHH: EVQLVESGGGLVQAGGSLRLSCAASGRTFSSYAMAWYRQAPGKEREYVAAIRWSGGTAYYADSVQGRFTISRDNAKNTVYLQMNSLKPEDTAVYYCANRAPDTRLAPYLYDYWGQGTQVTVSS"
  Display unit: "fold"
  Test result: 27
- Binder: "DLLBII129H02 (VHH) VHH: EVQLVESGGGLVQAGGSLRLSCAASGRTFSSYAMAWYRQAPGKEREYVAAIRWSGGTAYYADSVQGRFTISRDNAKNTVYLQMNSLKPEDTAVYYCANRAPDTRLRPYEYDYWGQGTQVTVSS"
  Display unit: "fold"
  Test result: 23
- Binder: "DLLBII129B05 (VHH, not shown: C-terminal c-myc tag and (His)6 tag) VHH: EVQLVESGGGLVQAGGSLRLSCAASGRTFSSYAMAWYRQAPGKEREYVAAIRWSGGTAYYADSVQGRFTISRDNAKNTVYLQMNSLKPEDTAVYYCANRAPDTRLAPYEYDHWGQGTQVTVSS"
  Display unit: "fold"
  Test result: 24
- Binder: "DLLBII130B02 (VHH) VHH: EVQLVESGGGLVQAGGSLRLSCAASGRTFSSYAMAWFRQAPGKEREYVAAIRWSGGTAYYADSVQGRFTISRDNAKNTVYLQMYSLKPEDTAVYYCANRAPDTRLAPYLYDHWGQGTQVTVSS"
  Display unit: "fold"
  Test result: 23
